Overview of reported ED50 across a group of compounds:
organism: Mus musculus; test: Sedative/muscle relaxant effects in male CD-1 mice was assessed with a Ugo Basile rotating drum and the dose causing 50% decrease in time (ED50) was evaluated; format: functional

# count of solved cases: 3
> print(dat)
                                smiles.data      reading
1  CCc1c(OC)nc2nc(-c3noc(C(F)(F)F)n3)cn2c1C  > 200 mg/kg
2        CCCc1c(OC)nc2nc(-c3noc(C)n3)cn2c1C   16.5 mg/kg
3         CCc1c(OC)nc2nc(-c3noc(C)n3)cn2c1C     17 mg/kg

Which ED50 value is on record for COc1nc2nc(-c3noc(C)n3)cn2c2c1CCCC2 ?
> 100 mg/kg

Which ED50 value is on record for CCc1c(OC)nc2nc(-c3nc(C)no3)cn2c1C ?
> 100 mg/kg

Which ED50 value is on record for CCc1c(OC)nc2nc(-c3nnc(C)o3)cn2c1C ?
> 200 mg/kg

====

tested on: Rattus norvegicus; assay: Minimum effective dose on oral administration; format: functional; details: read-out: MED
result_type: minimal effective dose (mg/kg)
Provide only the numeric value, understood in mg/kg.

# count of solved cases: 3
> print(dat)
                             smiles.data  reading
1      CCc1c(OC)nc2nc(-c3cc(C)no3)cn2c1C       50
2     COc1nc2nc(-c3noc(C)n3)cn2c2c1CCCC2        5
3  CCCc1nnc(-c2cn3c(C)c(CC)c(OC)nc3n2)o1       50

Here's the next entry for you.
Which minimal effective dose value is on record for CCc1csc(-c2cn3c(C)c(CC)c(OC)nc3n2)n1 ?
50

====

tested on: Rattus norvegicus; assay: Minimum effective dose on oral administration; type: functional; settings: read-out: MED
Overview of reported minimal effective dose across a group of compounds:
Provide only the numeric value, understood in mg/kg.

> print(dat)
                             smiles.data             result.type  unit.descriptor  reading
1      CCc1c(OC)nc2nc(-c3nc(C)no3)cn2c1C  minimal effective dose            mg/kg        5
2    C=CCc1c(OC)nc2nc(-c3nnc(C)o3)cn2c1C  minimal effective dose            mg/kg       10
3    C=CCc1c(OC)nc2nc(-c3noc(C)n3)cn2c1C  minimal effective dose            mg/kg       10
4  CCc1c(OC)nc2nc(-c3noc(C)n3)c(Cl)n2c1C  minimal effective dose            mg/kg       10
5      CCc1c(SC)nc2nc(-c3noc(C)n3)cn2c1C  minimal effective dose            mg/kg        2

Here's the next entry for you.
Which minimal effective dose value is on record for CCCc1c(OC)nc2nc(-c3noc(C)n3)cn2c1C ?
5

====

biological target: GABA-A receptor; anion channel; experiment: Binding affinity towards benzodiazepine receptor by the displacement of [3H]flunitrazepam from rat brain preparations.
Overview of reported pIC50 across a group of compounds:
# reply with the number alone; pIC50 is -log10 of concentration in mol/L

# count of solved cases: 2
> print(dat)
                          smiles.data  reading
1  CCCc1c(OC)nc2nc(-c3noc(C)n3)cn2c1C     5.80
2   CCc1c(SC)nc2nc(-c3noc(C)n3)cn2c1C     6.80

GABA-A receptor; anion channel / pIC50 / CCc1csc(-c2cn3c(C)c(CC)c(OC)nc3n2)n1 : value?
6.66

GABA-A receptor; anion channel / pIC50 / CCc1c(OC)nc2nc(-c3noc(C)n3)cn2c1C : value?
6.30

GABA-A receptor; anion channel / pIC50 / COc1nc2nc(-c3nnc(C)o3)cn2c2c1CCCC2 : value?
5.49

GABA-A receptor; anion channel / pIC50 / CCc1c(OC)nc2nc(-c3nc(C)no3)cn2c1C : value?
6.20

GABA-A receptor; anion channel / pIC50 / CCCc1c(OC)nc2nc(-c3nnc(C)o3)cn2c1C : value?
5.10
